Values were extracted from PubChem BioAssay AID330.

# T/C values compiled below
# Tested on: P388 leukemia ip, CD2F1 mice, survival T/C
# Assay notes: NCI In Vivo Anticancer Drug Screen. Data for tumor model P388 Leukemia (intraperitoneal) in CD2F1 (CDF1) mice
# Condition parameters: endpoint: median survival time; dose: 50.0 mg/kg/injection; schedule: Q01DX001 (ip); vehicle: Klucel (hydroxypropylcellulose) (HPC); higher = longer survival
Toxic doses and inconclusive results are not listed.
Readout name: T/C

{"Compound": "C[CH2][Sn][CH2]C.O=C(CC(=O)c1ccccc1)c1ccccc1.O=C(CC(=O)c1ccccc1)c1ccccc1", "Readout name": "T/C", "Reported measurement": "115 % of control"}
{"Compound": "COc1cc2c(cc1OC)CN1CCc3ccsc3C1C2 (stereo not given)", "Readout name": "T/C", "Reported measurement": "104 % of control"}
{"Compound": "CC(=O)NC(=S)Nc1ccccc1", "Readout name": "T/C", "Reported measurement": "101 % of control"}
{"Compound": "CCC(=O)NNc1cccc(Cl)n1", "Readout name": "T/C", "Reported measurement": "98 % of control"}
{"Compound": "O=C(CCl)Nc1ccc2c(c1)C(=O)c1cccn1-2", "Readout name": "T/C", "Reported measurement": "97 % of control"}

* * *

# Test system: P388 leukemia ip, CD2F1 mice, survival T/C
# Assay notes: NCI In Vivo Anticancer Drug Screen. Data for tumor model P388 Leukemia (intraperitoneal) in CD2F1 (CDF1) mice
# Condition parameters: endpoint: median survival time; dose: 7.5 mg/kg/injection; schedule: Q01DX005 (ip); vehicle: saline with Tween-80; higher = longer survival
Inconclusive results and toxic doses are left out.
# T/C values compiled below

{"Molecule": "COc1ccc([N+](=O)[O-])cc1NC(=O)c1ccc2c(c1)C(=O)OC2=O", "T/C": "97 % of control"}
{"Molecule": "CCOC(=O)c1c(O)c(Cc2ccccc2)c(=O)n2c1[nH]c1cc(C)c(C)cc12", "T/C": "100 % of control"}
{"Molecule": "CSC(=S)n1nc(-c2cccs2)c(N=Nc2ccccc2)c1C(F)(F)F", "T/C": "102 % of control"}
{"Molecule": "CC1CC(C#N)=C(NC#N)NC1=O (stereo unspecified)", "T/C": "108 % of control"}
{"Molecule": "CN1CC[CH2][Sn]([Cl])([Cl])[CH2]CC1", "T/C": "105 % of control"}
{"Molecule": "Clc1ccccc1-c1nnc(-c2cccc(-c3nnc(-c4ccccc4Cl)o3)n2)o1", "T/C": "89 % of control"}

* * *

# System: P388 leukemia ip, CD2F1 mice, survival T/C
# Assay notes: NCI In Vivo Anticancer Drug Screen. Data for tumor model P388 Leukemia (intraperitoneal) in CD2F1 (CDF1) mice
# Condition parameters: endpoint: median survival time; dose: 100.0 mg/kg/injection; schedule: Q01DX009 (ip); vehicle: distilled water + Tween-80; higher = longer survival
# Protocol: The antitumor activity of compounds was measured in mice bearing transplantable tumors. Survival or tumor size were measured and the results are expressed as the measurement made in the treated group (T) divided by the measurement made in the vehicle treated control group (C). The tumor model used in this assay is P388 Leukemia (intraperitoneal) in CD2F1 (CDF1) mice
Toxic doses and inconclusive results are not listed.
Readout name: T/C

{"Smiles": "CCN=NNc1ccc([N+](=O)[O-])cc1", "Reported measurement": "100 % of control"}
{"Smiles": "CCOC(=O)Nc1nncs1", "Reported measurement": "100 % of control"}
{"Smiles": "CC(=O)Nc1cccn(C)c1=O", "Reported measurement": "120 % of control"}
{"Smiles": "CCOC(=O)c1ccc(N)cc1", "Reported measurement": "110 % of control"}

* * *

# System: P388 leukemia ip, CD2F1 mice, survival T/C
# Assay notes: NCI In Vivo Anticancer Drug Screen. Data for tumor model P388 Leukemia (intraperitoneal) in CD2F1 (CDF1) mice
# Condition parameters: endpoint: median survival time; dose: 240.0 mg/kg/injection; schedule: Q01DX005 (ip); vehicle: saline with Tween-80; higher = longer survival
# Protocol: The antitumor activity of compounds was measured in mice bearing transplantable tumors. Survival or tumor size were measured and the results are expressed as the measurement made in the treated group (T) divided by the measurement made in the vehicle treated control group (C). The tumor model used in this assay is P388 Leukemia (intraperitoneal) in CD2F1 (CDF1) mice
Toxic doses and inconclusive results are not listed.
# T/C values compiled below

{"Compound": "Cc1nc2c(cc1C#N)C(NCCO)Oc1ccccc1-2 (stereo unspecified)", "T/C": "99 % of control"}
{"Compound": "Cc1ccc(C(O)(c2ccc(C)cc2)C(C)(C)O)cc1", "T/C": "103 % of control"}
{"Compound": "CCC[CH2][Sn]([CH2]CCC)([O][P+](=O)C[Si](C)(C)c1ccccc1)[O][P+](=O)C[Si](C)(C)c1ccccc1 (stereo unspecified)", "T/C": "122 % of control"}
{"Compound": "Cc1ccc(NC(=O)CCCC(=O)C(C#N)c2ccccc2C)cc1C (stereo unspecified)", "T/C": "102 % of control"}
{"Compound": "CC1Cc2nc3ccccc3nc2C1", "T/C": "104 % of control"}
{"Compound": "Nc1ncnc2c1c(-c1ccccc1)cn2-c1ccc(Cl)cc1", "T/C": "88 % of control"}

* * *

# System: P388 leukemia ip, CD2F1 mice, survival T/C
# Assay notes: NCI In Vivo Anticancer Drug Screen. Data for tumor model P388 Leukemia (intraperitoneal) in CD2F1 (CDF1) mice
# Condition parameters: endpoint: median survival time; dose: 400.0 mg/kg/injection; schedule: Q04DX003 (ip); vehicle: Klucel (hydroxypropylcellulose) (HPC); higher = longer survival
Inconclusive results and toxic doses are left out.
# T/C values compiled below
Readout name: T/C

{"Compound": "Clc1ccccc1CN1COc2c(ccc3ccccc23)C1", "Readout name": "T/C", "Reported measurement": "104 % of control"}
{"Compound": "Nc1nc(Cl)cc(=O)[nH]1", "Readout name": "T/C", "Reported measurement": "94 % of control"}
{"Compound": "O=Nc1ccc(NO)cc1", "Readout name": "T/C", "Reported measurement": "88 % of control"}
{"Compound": "COc1cccc(-n2c(SC)nccc2=O)c1", "Readout name": "T/C", "Reported measurement": "100 % of control"}
{"Compound": "Cc1ccc(N=Nc2c(O)ccc3n[nH]nc23)cc1", "Readout name": "T/C", "Reported measurement": "93 % of control"}
{"Compound": "C[N+](C)(Cc1cccc(Cl)c1)c1nnn[n-]1", "Readout name": "T/C", "Reported measurement": "107 % of control"}
{"Compound": "O=C1C2C=CC(c3ccccc32)N1/C=C/c1ccccc1 (stereo unspecified)", "Readout name": "T/C", "Reported measurement": "97 % of control"}
{"Compound": "O=C(CC(O)(c1ccccc1)c1ccccc1)Sc1ccccc1", "Readout name": "T/C", "Reported measurement": "105 % of control"}
{"Compound": "COc1cc2c(cc1OC)C1CC(=O)C(C3(O)C(=O)Nc4ccccc43)CN1CC2 (stereo unspecified)", "Readout name": "T/C", "Reported measurement": "112 % of control"}
{"Compound": "Cc1cc(=O)[nH]c2c(C)cccc12", "Readout name": "T/C", "Reported measurement": "99 % of control"}
{"Compound": "O=C(O)c1cc2sccc2c(=O)[nH]1", "Readout name": "T/C", "Reported measurement": "103 % of control"}

* * *

# Test system: P388 leukemia ip, CD2F1 mice, survival T/C
# Assay notes: NCI In Vivo Anticancer Drug Screen. Data for tumor model P388 Leukemia (intraperitoneal) in CD2F1 (CDF1) mice
# Condition parameters: endpoint: median survival time; dose: 200.0 mg/kg/injection; schedule: Q04DX002 (ip); vehicle: saline with Tween-80; higher = longer survival
Toxic doses and inconclusive results are not listed.

{"Molecule": "CS(C)(=O)=Nc1ccc(Br)cc1", "Test system": "P388 leukemia ip, CD2F1 mice, survival T/C", "T/C": "98 % of control"}
{"Molecule": "C/C=C(\\NN=NC)c1ccccc1", "Test system": "P388 leukemia ip, CD2F1 mice, survival T/C", "T/C": "166 % of control"}
{"Molecule": "O=C1NC(N(CCCl)CCCl)=NC1(c1ccccc1)c1ccccc1", "Test system": "P388 leukemia ip, CD2F1 mice, survival T/C", "T/C": "96 % of control"}
{"Molecule": "CC1=NC(=O)C(N=O)C(=O)N1 (centres undefined)", "Test system": "P388 leukemia ip, CD2F1 mice, survival T/C", "T/C": "97 % of control"}
{"Molecule": "O=C(O)Cc1cn2cccnc2n1", "Test system": "P388 leukemia ip, CD2F1 mice, survival T/C", "T/C": "96 % of control"}
{"Molecule": "OC(Cc1cnc2ccccc2c1)(c1ccccc1)c1ccccc1", "Test system": "P388 leukemia ip, CD2F1 mice, survival T/C", "T/C": "88 % of control"}
{"Molecule": "COC(=O)C1CC2C(=O)N(C)C=CC12 (centres undefined)", "Test system": "P388 leukemia ip, CD2F1 mice, survival T/C", "T/C": "98 % of control"}
{"Molecule": "c1ccc2nc(-c3cnc4ccccc4n3)cnc2c1", "Test system": "P388 leukemia ip, CD2F1 mice, survival T/C", "T/C": "90 % of control"}
{"Molecule": "COc1ccc(C2ON=C(c3cc(C)cc(Br)c3O)C2[N+](=O)[O-])cc1 (centres undefined)", "Test system": "P388 leukemia ip, CD2F1 mice, survival T/C", "T/C": "94 % of control"}
